Reference for the values: patent US11667697

Listed here are binders together with their documented PRNT IC50, VACV MV.
# tested system: T1, VACV L1 protein (vaccinia virus, UniProt P07612 1-185)
# T1 sequence: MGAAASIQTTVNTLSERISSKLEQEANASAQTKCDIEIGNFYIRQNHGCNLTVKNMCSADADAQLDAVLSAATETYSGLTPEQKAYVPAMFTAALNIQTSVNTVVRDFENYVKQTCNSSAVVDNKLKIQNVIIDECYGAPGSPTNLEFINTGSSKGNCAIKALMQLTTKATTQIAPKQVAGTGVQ
# test summary: cell-based or functional assay

| binder | PRNT IC50, VACV MV (µg/mL) |
| --- | --- |
| MPXV-26 (antibody, V domains shown, human IgG1, anti-L1) VH: QVQLVQSGGGLIQPGGSLRLSCVVSGFNVATNYMSWVRQAPGKGLEWVSVIYSGGSTYYADSVKGRFTISRDNSKNTVFLQMNSLRPEDTAAYYCAKGGGLGLDYWGQGTLVTVSS VL: QSALTQPPSASGSPGQSVTITCTGSSSDVGGYNYVSWYQQHPGKAPKVVIYEVNKRPSGVPHRFSGSKSGNTASLTVSGLQAEDEADYYCSSYAGTETVAFGGGTKLTVL | 0.3 |
| VACV-33 (antibody, V domains shown, human IgG1, anti-L1) VH: QLQLQESGPGLVKPSETLSLTCTVSGGSISSGGYYWGWIRQPPGKGLEWIASIYYSGSTYYNPSLKSRVTISVDTSKTQFSLKLSSVTAADTAVYYCARQSSSTGGFHYWGQGTLVTVSS VL: QSVLTQPPSVSGAPGQRVTISCTGSSSNIGAGYDVHWYQHLPGTAPKLLIYGNSNRPSGVPDRFSGSKSGTSASLAITGLQAEDEANYYCQSYDSSLSGREVFGGGTQLTVL | 0.3 |
| VACV-34 (antibody, V domains shown, human IgG1, anti-L1) VH: QVQLVESGGGLVQPGRSLRLSCAASGFTFDDYAMHWVRQAPGKGLEWVSGLSWNSGSIGYADSVKGRFTISRDNAKNSLYLQMNSLRAEDTALYYCAKETEKYYYDSSGYDYWGQGTLVTVSS VL: EIVLTQSPGTLSLSPGERATLSCRASQSVSSIYLAWYQQKPGQAPRLLIYGASSRATGIPDRFSGSGSGTDFTLTISRLEPEDFAVYYCQQYGSRGTFGQGTKLEIK | 3.3 |
| MPXV-87 (antibody, V domains shown, human IgG1, anti-L1) V domain 1: QVQLVQSGAEVKKPGASVKVSCKASGYTFTSHGIIWVRQAPGQGLEWMGWISVYNDNTNSAQKFQDRVTMTTATSTSTAYMELRSLRSDDTAVYYCARSSSGPRYYYYGMDVWGQGTTSP V domain 2: QSVVTQPPSVSGAPGQRVTISCTGSSSNIGAGYAVHWYYQLPGIAPKLLIFGNNNRPSGVPDRFSGSKSGTSASLAITGLQAEDEADYYCQSYDSSLSGWVFGGGTQVTVL | 5 |
